The following molecules are listed with their measured IC50 values.
Biological target: androgen receptor (AR) (Homo sapiens, UniProt P10275, T878A)
Sequence (P10275 whole entry T878A): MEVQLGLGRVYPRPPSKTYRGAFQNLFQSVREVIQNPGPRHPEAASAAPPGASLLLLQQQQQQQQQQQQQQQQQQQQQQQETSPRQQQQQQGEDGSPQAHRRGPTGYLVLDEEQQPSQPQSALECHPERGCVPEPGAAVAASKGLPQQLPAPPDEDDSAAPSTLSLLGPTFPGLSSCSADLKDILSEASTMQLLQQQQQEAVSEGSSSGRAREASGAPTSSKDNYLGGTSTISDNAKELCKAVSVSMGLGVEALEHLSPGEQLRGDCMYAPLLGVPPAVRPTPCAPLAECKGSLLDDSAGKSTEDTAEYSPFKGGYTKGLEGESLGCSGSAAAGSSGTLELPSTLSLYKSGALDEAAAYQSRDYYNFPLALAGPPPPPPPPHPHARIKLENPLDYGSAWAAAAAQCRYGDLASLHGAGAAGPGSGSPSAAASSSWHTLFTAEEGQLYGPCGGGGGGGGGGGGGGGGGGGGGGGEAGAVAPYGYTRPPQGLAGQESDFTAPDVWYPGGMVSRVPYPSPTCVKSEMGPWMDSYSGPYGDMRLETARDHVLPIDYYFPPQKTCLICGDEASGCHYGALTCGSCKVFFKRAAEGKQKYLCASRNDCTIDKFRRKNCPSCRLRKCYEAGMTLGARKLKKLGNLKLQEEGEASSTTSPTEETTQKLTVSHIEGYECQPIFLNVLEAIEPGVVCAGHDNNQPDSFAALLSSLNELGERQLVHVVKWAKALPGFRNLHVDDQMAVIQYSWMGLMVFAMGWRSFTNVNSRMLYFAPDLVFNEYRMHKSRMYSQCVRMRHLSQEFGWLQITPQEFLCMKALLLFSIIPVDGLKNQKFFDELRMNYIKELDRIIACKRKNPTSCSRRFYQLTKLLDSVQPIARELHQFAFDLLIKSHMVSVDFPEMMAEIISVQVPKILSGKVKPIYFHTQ
Assay: Androgen-induced PSA (6.1 kb)-luciferase reporter assay in LNCaP cells (R1881 1 nM)
Assay type: cell-based
Set-up: endogenous in cells; host or cells: LNCaP
Conditions: 24 h, read-out: PSA-Luc IC50 Range

Below, 10 molecules whose answers are already recorded.
molecule="CC(C)(c1ccc(-c2cnc3c(c2)CCC3NS(C)(=O)=O)cc1)c1cc(Cl)c(OCCCl)c(C#N)c1 (stereo not drawn)" experimental_target="androgen receptor (AR) (Homo sapiens, UniProt P10275, T878A)" observed_result="500 to 2000 nM"
molecule=CC(C)(c1ccc(OCc2ccnc(NS(C)(=O)=O)n2)cc1)c1cc(Cl)c(N2CCOCC2)c(C#N)c1 experimental_target="androgen receptor (AR) (Homo sapiens, UniProt P10275, T878A)" observed_result="500 to 2000 nM"
molecule=CC(C)(c1ccc(OCc2cncc(NS(C)(=O)=O)c2)cc1)c1cc(Cl)c(OCCCl)c(C#N)c1 experimental_target="androgen receptor (AR) (Homo sapiens, UniProt P10275, T878A)" observed_result="500 to 2000 nM"
molecule=CC(C)(c1ccc(OCc2ccnc(NS(C)(=O)=O)c2N)cc1)c1cc(Cl)c(OCCCl)c(C#N)c1 experimental_target="androgen receptor (AR) (Homo sapiens, UniProt P10275, T878A)" observed_result="< 500 nM"
molecule=CC(C)(c1ccc(-c2cc3cnc(NS(C)(=O)=O)nn3c2)cc1)c1cc(Cl)c(OCCCl)c(C#N)c1 experimental_target="androgen receptor (AR) (Homo sapiens, UniProt P10275, T878A)" observed_result="> 2000 nM"
molecule=Cn1nc(NS(C)(=O)=O)cc1COc1ccc(C(C)(C)c2cc(Cl)c(OCCCl)c(C#N)c2)cc1 experimental_target="androgen receptor (AR) (Homo sapiens, UniProt P10275, T878A)" observed_result="500 to 2000 nM"
molecule=CC(C)(c1ccc(OCc2ccnc(NS(C)(=O)=O)n2)cc1)c1cc(C#N)c2ccc(Cl)cc2c1 experimental_target="androgen receptor (AR) (Homo sapiens, UniProt P10275, T878A)" observed_result="500 to 2000 nM"
molecule="CS(=O)(=O)N1CC2CC(Oc3ccc4c(ccn4-c4cc(Cl)c(OCCCl)c(C#N)c4)c3)CC2C1 (stereo not drawn)" experimental_target="androgen receptor (AR) (Homo sapiens, UniProt P10275, T878A)" observed_result="500 to 2000 nM"
molecule=CS(=O)(=O)Nc1nccc(COc2ccc3cc(-c4cc(Cl)c(OCCCl)c(C#N)c4)ccc3c2)n1 experimental_target="androgen receptor (AR) (Homo sapiens, UniProt P10275, T878A)" observed_result="> 2000 nM"
molecule=N#Cc1cc(-n2ccc3cc(OCc4c[nH]nn4)ccc32)cc(Cl)c1OCCCl experimental_target="androgen receptor (AR) (Homo sapiens, UniProt P10275, T878A)" observed_result="500 to 2000 nM"

Enquiry: Indicate its recorded IC50; the molecule in question is CC(C)(c1ccc(OCc2ncc(NS(C)(=O)=O)nc2N)cc1)c1cc(Cl)c(OCCCl)c(C#N)c1
Return: < 500 nM

Enquiry: Name the recorded IC50 of the item CS(=O)(=O)N1CCN(Cc2ccc3c(ccn3-c3cc(Cl)c(OCCCl)c(C#N)c3)c2)CC1 in your answer.
Return: > 2000 nM

Enquiry: Identify measured IC50 associated with CC(C)(c1ccc(-c2cnc3c(c2)CCC(NS(C)(=O)=O)C3)cc1)c1cc(Cl)c(OCCCl)c(C#N)c1 (stereo not drawn)
Return: 500 to 2000 nM

Enquiry: Using known records, supply IC50 for CS(=O)(=O)Nc1nccc(COc2ccc3c(c2)CCN3c2cc(Cl)c(OCCCl)c(C#N)c2)n1
Return: > 2000 nM

Enquiry: Check the records and state IC50 for CS(=O)(=O)NC1CCCN(CCc2ccc3c(ccn3-c3cc(Cl)c(OCCCl)c(C#N)c3)c2)C1 (stereo not drawn)
Return: > 2000 nM

Enquiry: State its IC50 for this molecule: CC(C)(c1ccc(OCC23CC(NS(C)(=O)=O)(C2)C3)cc1)c1cc(Cl)c(OCCCl)c(C#N)c1
Return: 500 to 2000 nM

Enquiry: Please report the measured IC50 for CS(=O)(=O)N1CC(F)(COc2ccc3c(ccn3-c3cc(Cl)c(OCCCl)c(C#N)c3)c2)C1
Return: 500 to 2000 nM

Enquiry: # return recorded IC50 for input CS(=O)(=O)Nc1nccc(COc2ccc3c(ccn3-c3cc(Cl)c(OCC(F)(F)F)c(C#N)c3)c2)n1
Return: 500 to 2000 nM
